# tgt: Follistatin-related protein 3 (Homo sapiens) (UniProt O95633)
# Sequence (O95633 whole entry, looked up): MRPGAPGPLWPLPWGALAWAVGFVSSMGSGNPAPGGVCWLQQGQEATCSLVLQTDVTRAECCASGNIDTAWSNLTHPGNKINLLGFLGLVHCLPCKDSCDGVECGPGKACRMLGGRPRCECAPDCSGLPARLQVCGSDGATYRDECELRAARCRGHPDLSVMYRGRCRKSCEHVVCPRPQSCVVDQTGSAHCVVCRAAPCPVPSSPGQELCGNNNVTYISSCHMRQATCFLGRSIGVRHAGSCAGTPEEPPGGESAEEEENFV
# protocol-notes: FSTL3 binders on small-molecule microarrays, primary screen, biochemical, small-molecule microarray, 635 nm fluorescence (AID 1105);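 note: score merges emission near 667 nm and signal to noise per printed spot across three slides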
# condition-description: FSTL3 binding, higher = more signal
// composite z-score lookup, one value per entry

Consider the reported composite z-score for these molecules:
O=C1O[C@@H](c2ccccc2)[C@@H](c2ccccc2)N2[C@@H](c3ccc(OCCO)cc3)[C@]3(C(=O)Nc4ccc(C#CC5(O)CCCCCC5)cc43)[C@@H](C(=O)NC[C@H](O)c3ccccc3)[C@H]12	1.25
COCCOC(=O)N1C(=O)[C@@]2(c3ccccc31)[C@H](C(=O)Nc1nc3ccccc3s1)[C@H]1C(=O)O[C@H](c3ccccc3)[C@H](c3ccccc3)N1[C@@H]2c1ccc(O)cc1	0.775

[in] Look up and report measured composite z-score for this entry: "COc1ccc([Si](C)(C)[C@@H]2[C@@H](CC(=O)N3CCC[C@H]3CO)O[C@]3(C(=O)N(Cc4ccc(N5CCC5=O)cc4)c4ccccc43)[C@H]2C)cc1"
[out] 0.489

[in] Look up and report measured composite z-score for this entry: "COc1ccc([Si](C)(C)[C@@H]2[C@@H](CC(=O)N3CCC[C@H]3CO)O[C@]3(C(=O)N(Cc4ccc(I)cc4)c4ccccc43)[C@H]2C)cc1"
[out] 1.23

[in] Look up and report measured composite z-score for this entry: "COC(=O)C(CC#Cc1ccc2c(c1)[C@]1(C(=O)N2)[C@H](c2ccccc2OCCO)N2[C@H](c3ccccc3)[C@H](c3ccccc3)OC(=O)[C@H]2[C@@H]1C(=O)N1CCCCCCC1)C(=O)OC"
[out] 1.77

[in] Look up and report measured composite z-score for this entry: "COCCCNC(=O)[C@@]1(C)c2ccccc2C(=O)N(Cc2cc(F)cc(C(F)(F)F)c2)[C@H]1c1ccc(CO)cc1"
[out] -1.69

[in] Look up and report measured composite z-score for this entry: "C=CCN1C(=O)[C@]2(O[C@H](CCn3cc([C@H](O)c4ccccc4)nn3)[C@@H]([Si](C)(C)c3ccc(OC)cc3)[C@@H]2C)c2cc(N3CCOC3=O)ccc21"
[out] -0.577

[in] Look up and report measured composite z-score for this entry: "O=C(NCc1ccccc1)[C@@H]1c2ccccc2C(=O)N(Cc2ccccc2Cl)[C@H]1c1ccc(CO)cc1"
[out] 1.42

[in] Look up and report measured composite z-score for this entry: COC(=O)C1=CC(c2ccc(CO)cc2)=CC(c2cccs2)N(C)C=C1C(=O)OC (centres undefined)
[out] 0.409

----------
// z-score lookup, one value per entry
# protocol-notes: basal S. cerevisiae growth modulation, no modifier, primary screen, OD600, strain BY4716, 24 h, basal condition (AID 1173)
# condition-description: OD600, 24 h, higher = more signal, called active from +8 up or from −8 down
Please reply with the value in numeric form only.

[in] Look up and report measured z-score for this entry: "CC(C)NC(=O)[C@@H]1c2ccccc2C(=O)N(Cc2cc(F)cc(C(F)(F)F)c2)[C@H]1c1ccc(CO)cc1"
[out] -0.518

[in] Look up and report measured z-score for this entry: "C=CC[C@]1(C(=O)N2CCCCC2)COC(c2ccc(OCCCO)cc2)=N1"
[out] -6.59

[in] Look up and report measured z-score for this entry: "COc1ccc([Si](C)(C)[C@H]2[C@H](CCO)O[C@@]3(C(=O)N(Cc4ccc(N5C(=O)c6cccc7cccc5c67)cc4)c4ccccc43)[C@@H]2C)cc1"
[out] -0.433

[in] Look up and report measured z-score for this entry: C=C1C=C(Br)C2(OCCCO2)[C@H]2OC12 (stereo partly specified)
[out] -0.353

[in] Look up and report measured z-score for this entry: "C=CCNC(=O)[C@H]1[C@@H]2C(=O)O[C@@H](c3ccccc3)[C@@H](c3ccccc3)N2[C@@H](c2ccccc2OCCO)[C@]12C(=O)N(C(=O)OCCOC)c1ccc(C#CCCO)cc12"
[out] 0.799

[in] Look up and report measured z-score for this entry: "COc1ccc([Si](C)(C)[C@@H]2[C@@H](CCn3cc([C@H](O)c4ccccc4)nn3)O[C@]3(C(=O)N(C)c4c(Br)cc(C)cc43)[C@H]2C)cc1"
[out] -1.39

Data provenance is PubChem BioAssay.
